- experimental-target: T1, human KDR (human, UniProt P35968 20-1356)
- T1 construct: whole, on cells; also called VEGFR2; endogenously-expressed KDR in HUVEC cells
- T1 sequence (P35968 20-1356): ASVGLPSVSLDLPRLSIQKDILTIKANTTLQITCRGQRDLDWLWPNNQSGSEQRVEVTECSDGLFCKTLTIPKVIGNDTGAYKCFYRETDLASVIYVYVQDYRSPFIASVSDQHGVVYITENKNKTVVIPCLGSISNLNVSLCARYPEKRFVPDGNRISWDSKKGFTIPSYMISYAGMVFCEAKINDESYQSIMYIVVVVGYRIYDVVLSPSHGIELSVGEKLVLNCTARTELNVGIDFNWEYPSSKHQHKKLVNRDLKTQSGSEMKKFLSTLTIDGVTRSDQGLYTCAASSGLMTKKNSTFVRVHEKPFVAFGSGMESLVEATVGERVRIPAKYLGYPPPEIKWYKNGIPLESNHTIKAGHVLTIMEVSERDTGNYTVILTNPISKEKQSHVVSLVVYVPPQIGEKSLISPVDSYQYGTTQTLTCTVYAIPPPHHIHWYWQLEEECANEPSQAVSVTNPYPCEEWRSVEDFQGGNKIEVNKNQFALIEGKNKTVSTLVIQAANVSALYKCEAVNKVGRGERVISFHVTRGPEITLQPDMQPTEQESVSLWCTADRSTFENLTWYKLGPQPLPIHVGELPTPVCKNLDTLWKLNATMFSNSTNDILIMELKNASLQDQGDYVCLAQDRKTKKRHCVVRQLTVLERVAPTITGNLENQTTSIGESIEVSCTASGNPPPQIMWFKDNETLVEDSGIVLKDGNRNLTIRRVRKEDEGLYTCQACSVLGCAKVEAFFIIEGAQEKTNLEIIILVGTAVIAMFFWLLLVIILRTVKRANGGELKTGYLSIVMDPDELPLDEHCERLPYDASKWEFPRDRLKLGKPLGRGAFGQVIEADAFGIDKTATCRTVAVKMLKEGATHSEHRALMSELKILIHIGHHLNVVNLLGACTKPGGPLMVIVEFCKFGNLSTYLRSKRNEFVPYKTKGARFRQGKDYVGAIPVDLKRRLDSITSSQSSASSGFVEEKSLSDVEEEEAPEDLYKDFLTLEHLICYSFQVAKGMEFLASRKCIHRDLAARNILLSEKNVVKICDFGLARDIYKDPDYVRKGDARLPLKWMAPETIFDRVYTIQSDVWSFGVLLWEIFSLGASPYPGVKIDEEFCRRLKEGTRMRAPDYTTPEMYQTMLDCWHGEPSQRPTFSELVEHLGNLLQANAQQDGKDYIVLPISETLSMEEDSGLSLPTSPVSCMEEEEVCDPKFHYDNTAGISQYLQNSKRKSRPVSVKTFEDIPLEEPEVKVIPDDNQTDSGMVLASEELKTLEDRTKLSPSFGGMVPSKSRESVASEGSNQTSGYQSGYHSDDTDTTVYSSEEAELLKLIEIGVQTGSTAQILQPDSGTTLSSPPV
- assay-text: FACS titration of purified antibody on HUVEC cells (FACS Kd)
Would you kindly list Kd for each of these binders?
One number for each entry, in nM.

31E11 (antibody, V domains shown, Fully human monoclonal antibody from a XenoMouse hybridoma (IgG2 or IgG4 strain), purified) VH: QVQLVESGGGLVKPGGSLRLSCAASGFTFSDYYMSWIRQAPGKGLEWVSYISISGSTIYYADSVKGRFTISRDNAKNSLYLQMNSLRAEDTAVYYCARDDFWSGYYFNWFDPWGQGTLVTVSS VL: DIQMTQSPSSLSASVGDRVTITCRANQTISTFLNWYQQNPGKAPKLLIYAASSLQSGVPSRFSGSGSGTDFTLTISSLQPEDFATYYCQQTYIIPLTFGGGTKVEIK; 11.3
32F4 (antibody, V domains shown, Fully human monoclonal antibody from a XenoMouse hybridoma (IgG2 or IgG4 strain), purified) VH: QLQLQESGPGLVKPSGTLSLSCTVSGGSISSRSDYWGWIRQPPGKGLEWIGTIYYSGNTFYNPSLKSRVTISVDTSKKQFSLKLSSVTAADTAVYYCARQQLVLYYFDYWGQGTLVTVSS VL: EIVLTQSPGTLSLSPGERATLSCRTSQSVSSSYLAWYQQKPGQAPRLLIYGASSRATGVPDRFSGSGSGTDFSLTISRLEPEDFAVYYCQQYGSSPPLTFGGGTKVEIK; 1.8
29H3 (antibody, V domains shown, Fully human monoclonal antibody from a XenoMouse hybridoma (IgG2 or IgG4 strain), purified) VH: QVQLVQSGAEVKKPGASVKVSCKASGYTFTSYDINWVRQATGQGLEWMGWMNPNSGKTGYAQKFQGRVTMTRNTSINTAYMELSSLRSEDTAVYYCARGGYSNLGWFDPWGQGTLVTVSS VL: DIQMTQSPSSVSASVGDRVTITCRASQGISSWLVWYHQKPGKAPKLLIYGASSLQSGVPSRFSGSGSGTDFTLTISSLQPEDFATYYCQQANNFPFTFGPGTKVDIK; 0.5
22B8 (antibody, V domains shown, Fully human monoclonal antibody from a XenoMouse hybridoma (IgG2 or IgG4 strain), purified) VH: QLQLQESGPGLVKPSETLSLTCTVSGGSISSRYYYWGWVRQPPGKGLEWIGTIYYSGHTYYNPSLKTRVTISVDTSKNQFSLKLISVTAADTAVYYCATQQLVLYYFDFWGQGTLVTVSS VL: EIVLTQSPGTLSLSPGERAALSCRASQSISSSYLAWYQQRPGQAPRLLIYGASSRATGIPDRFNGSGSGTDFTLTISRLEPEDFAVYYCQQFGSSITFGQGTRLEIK; 1.8

Moving on to the next binder.
Qu. Looking for the measured Kd of 33C3 (antibody, V domains shown, Fully human monoclonal antibody from a XenoMouse hybridoma (IgG2 or IgG4 strain), purified) VH: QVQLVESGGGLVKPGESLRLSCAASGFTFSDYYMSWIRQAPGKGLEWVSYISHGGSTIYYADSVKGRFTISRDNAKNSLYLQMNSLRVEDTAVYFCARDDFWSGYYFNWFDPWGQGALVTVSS VL: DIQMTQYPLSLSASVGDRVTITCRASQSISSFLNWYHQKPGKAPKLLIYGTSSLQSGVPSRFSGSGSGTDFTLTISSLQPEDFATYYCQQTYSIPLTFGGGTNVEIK , can you help?
Ans. 1
